# STUDY TARGET: Cloned Human Dopamine D3 Receptors (Homo sapiens, UniProt P35462)
# Construct: expressed in transfected cells; membrane homogenate
# Sequence (P35462 whole entry): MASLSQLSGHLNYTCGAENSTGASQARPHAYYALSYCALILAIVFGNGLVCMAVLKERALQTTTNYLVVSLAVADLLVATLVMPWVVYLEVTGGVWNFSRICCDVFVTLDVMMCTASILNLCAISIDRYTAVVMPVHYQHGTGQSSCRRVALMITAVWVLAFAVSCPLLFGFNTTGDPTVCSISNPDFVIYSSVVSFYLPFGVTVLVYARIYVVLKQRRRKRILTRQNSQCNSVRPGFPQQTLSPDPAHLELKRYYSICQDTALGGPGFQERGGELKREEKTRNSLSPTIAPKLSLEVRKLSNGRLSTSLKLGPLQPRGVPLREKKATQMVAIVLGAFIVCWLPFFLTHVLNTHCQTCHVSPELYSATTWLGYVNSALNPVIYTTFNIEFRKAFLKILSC
# EXPERIMENT: [N-Methyl-3H]Spiroperidol binding to cloned human dopamine D3 receptors
# PROTOCOL CONDITIONS: Table 2 part the 10th table; read-out: d3Ki
pKi: −log10 of the molar value.
Each record here notes measured pKi.
VALUE TYPE: pKi

1) O=C([C@@H]1C[C@H]1CN1CCN(c2csc3cc(C(F)(F)F)ccc23)CC1)N1CCC(O)(c2ccc(Cl)cc2)CC1 :: 6.74
2) CC1CCN(C(=O)[C@@H]2C[C@H]2CN2CCCN(c3csc4cc(F)ccc34)CC2)CC1 :: 8.76
3) CN(C)C1CCN(C(=O)CCCN2CCN(c3csc4cc(F)ccc34)CC2)C1 (stereo not drawn) :: 7.58
4) O=C([C@@H]1C[C@H]1CN1CCN(c2csc3cc(C(F)(F)F)ccc23)CC1)N1CCC(Cc2ccccc2)CC1 :: 7.16
5) CN(C)C1CCN(C(=O)CCCN2CCN(c3csc4cc(F)ccc34)CC2Cc2ccccc2)C1 (stereo not drawn) :: 6.85
6) CCOC(=O)C1CN(C(=O)[C@@H]2C[C@H]2CN2CCN(c3csc4cc(F)ccc34)CC2)CCC1=O (stereo partly drawn) :: 8.17
7) CC1CCCN(C(=O)[C@@H]2C[C@H]2CN2CCN(c3csc4cc(C(F)(F)F)ccc34)CC2)C1 (stereo partly drawn) :: 7.73
8) CC1CCCCN1C(=O)CCCN1CCN(c2csc3cc(F)ccc23)CC1Cc1ccccc1 (stereo not drawn) :: 7.46
9) CC1CC(C)CN(C(=O)[C@@H]2C[C@H]2CN2CCN(c3csc4cc(C(F)(F)F)ccc34)CC2)C1 (stereo partly drawn) :: 7.06
10) O=C(CCCN1CCN(c2csc3cc(F)ccc23)CC1Cc1ccccc1)N1CCCC1 (stereo not drawn) :: 7.20
11) N#CC1(c2ccccc2)CCN(C(=O)[C@@H]2C[C@H]2CN2CCN(c3csc4cc(F)ccc34)CC2)CC1 :: 7.32
12) CC1CCN(C(=O)CCCN2CCN(c3csc4cc(F)ccc34)CC2Cc2ccccc2)CC1 (stereo not drawn) :: 7.42
13) COC[C@@H]1CCCN1C(=O)[C@@H]1C[C@H]1CN1CCN(c2csc3cc(C(F)(F)F)ccc23)CC1 :: 6.71
14) O=C([C@@H]1C[C@H]1CN1CCCN(c2csc3cc(C(F)(F)F)ccc23)CC1)N1CCCC1 :: 8.43
15) CCOC(=O)C1CN(C(=O)[C@@H]2C[C@H]2CN2CCN(c3csc4cc(C(F)(F)F)ccc34)CC2)CCC1=O (stereo partly drawn) :: 6.85

---

Each record here notes measured Ki.
# STUDY TARGET: Cloned Human Dopamine D3 Receptors (Homo sapiens, UniProt P35462)
# Construct: expressed in transfected cells; membrane homogenate
# EXPERIMENT: [N-Methyl-3H]Spiroperidol binding to cloned human dopamine D3 receptors
# PROTOCOL CONDITIONS: Table 2 part the 10th table; read-out: d3Ki
VALUE TYPE: Ki (nM)

1) CC1CCCN(C(=O)CCCN2CCN(c3csc4cc(C(F)(F)F)ccc34)CC2Cc2ccccc2)C1 (centres unmarked) [compound 827066] :: 209
2) C[C@@]1(C(=O)N2CCCCC2)C[C@H]1CN1CCN(c2csc3cc(C(F)(F)F)ccc23)CC1 [compound 825891] :: 118
3) CC1CCCC(C)N1C(=O)[C@@H]1C[C@H]1CN1CCN(c2csc3cc(F)ccc23)CC1 (some centres unmarked) [compound 826675] :: 8
4) O=C([C@@H]1C[C@H]1CN1CCN(c2csc3cc(F)ccc23)CC1)N1CCC(Cc2ccccc2)CC1 [compound 826673] :: 7.9
5) CC1CCN(C(=O)CCCN2CCCN(c3csc4cc(F)ccc34)CC2)CC1 [compound 826834] :: 8.01

---

Each record here notes measured Ki.
# STUDY TARGET: Cloned Human Dopamine D3 Receptors (Homo sapiens)
# Construct: expressed in transfected cells; membrane homogenate
# EXPERIMENT: [N-Methyl-3H]Spiroperidol binding to cloned human dopamine D3 receptors
# PROTOCOL CONDITIONS: D3 Ki (nM)
VALUE TYPE: Ki (nM)

1. O=C(NC1CCN(Cc2cccc(F)c2)CC1)[C@@H]1C[C@H]1CN1CCC(c2noc3ccsc23)CC1 [compound 832727] :: 1.19
2. COc1ccccc1CN1CCC(NC(=O)C2CC2CN2CCC(c3noc4ccsc34)CC2)CC1 (stereo not drawn) [compound 831991] :: 0.722
3. O=C(C1CC1CN1CCC(c2noc3ccsc23)CC1)N1CCC(Nc2ccc(Cl)cc2)CC1 (stereo not drawn) [compound 832395] :: 30.2
4. O=C(NC1CCN(Cc2ccc(C(F)(F)F)cc2)CC1)C1CC1CN1CCC(c2noc3ccsc23)CC1 (stereo not drawn) [compound 832349] :: 0.843
5. Cn1nc(N2CCN(CC3CC3C(=O)NCCCn3ccnc3)CC2)c2sccc21 (stereo not drawn) [compound 831673] :: 23.5
6. Cn1nc(C2CCN(C[C@@H]3C[C@H]3C(=O)NCCCN3CCCCC3)CC2)c2cc(C(F)(F)F)ccc21 [833585ES] :: 5.86
7. O=C([C@@H]1C[C@H]1CN1CCC(c2noc3ccsc23)CC1)N1CCN(Cc2ccc(Cl)cc2)CC1 [compound 833128] :: 28.7
8. O=C(NC1CCN(C(=O)Nc2ccc(F)cc2)CC1)[C@@H]1C[C@H]1CN1CCC(c2noc3ccsc23)CC1 [compound 833715] :: 5.7
9. CN1C2CCC1CC(NC(=O)C1CC1CN1CCC(c3nn(C)c4c(C(F)(F)F)cccc34)CC1)C2 (stereo not drawn) [A002328941] :: 23.9
10. CN1CCCC1CCNC(=O)[C@H]1C[C@@H]1CN1CCC(c2noc3ccsc23)CC1 (single isomer, unassigned) [compound 832514] :: 115
11. O=C(NC1CCN(CCc2cccc(Cl)c2)CC1)C1CC1CN1CCC(c2noc3ccsc23)CC1 (stereo not drawn) [832573FH] :: 4.52
12. O=C(NC1CCN(Cc2ccc(F)c(F)c2)CC1)C1CC1CN1CCC(c2noc3ccsc23)CC1 (stereo not drawn) [compound 832342] :: 0.077
13. O=C(NCCCc1nc2ccccc2[nH]1)[C@@H]1C[C@H]1CN1CCC(c2noc3ccsc23)CC1 [832574FH] :: 57.3
14. Cn1nc(C2CCN(C[C@@H]3C[C@H]3C(=O)N[C@H]3CC[C@H](C)CC3)CC2)c2cc(C(F)(F)F)ccc21 [compound 833769] :: 1.63
15. Cn1nc(C2CCN(C[C@@H]3C[C@H]3C(=O)NCCCN3CCCCC3)CC2)c2cccc(C(F)(F)F)c21 [compound 833090] :: 41.8

---

# STUDY TARGET: Cloned Human Dopamine D3 Receptors (Homo sapiens, UniProt P35462)
# Construct: expressed in transfected cells; membrane homogenate
# EXPERIMENT: [N-Methyl-3H]Spiroperidol binding to cloned human dopamine D3 receptors
# PROTOCOL CONDITIONS: read-out: D3 Ki
# Description: [N-Methyl-^3H]Spiroperidol Binding to Cloned Human Dopamine D3 Receptors […] A 200 µl sample membrane homogenate is added to 200 µl of 1% SDS, vortexed and allowed to stand for 5 min. Aliquots (25, 50 and 100 µl) of this mixture are assayed in duplicate following the standard Bio-Rad DC protein assay protocol (kit catalog number 500-0112) and using reagent S. Absorbance readings are made at 750 nm (note: the most accurate protein OD readings are between 0.1-0.5 units). […]
pKi: −log10 of the molar value.
Each record here notes measured pKi.
VALUE TYPE: pKi

1. Cn1nc(C2CCN(C[C@@H]3C[C@H]3C(=O)N3CCC(Cn4ccnc4)CC3)CC2)c2sccc21 [A002436292] :: 6.89
2. O=C(NCCCN1CCOCC1)[C@@H]1C[C@H]1CN1CCC(c2noc3c(C(F)(F)F)cccc23)CC1 [compound 832273] :: 6.69
3. CC(C)(C)OC(=O)N1CCCC(CNC(=O)[C@@H]2C[C@H]2CN2CCC(c3noc4ccsc34)CC2)C1 (mixture of isomers) [compound 833374] :: 7.51
4. CCC1CCC(NC(=O)C2CC2CN2CCCN(c3ccc4c(C#N)n[nH]c4n3)CC2)CC1 (stereo not drawn) [compound 830122] :: 7.17
5. COCCN1CCN(C(=O)[C@@H]2C[C@H]2CN2CCN(c3nn(C)c4ccc(OC)cc34)CC2)CC1 [832748FH] :: 7.10
6. Cn1nc(C2CCN(C[C@@H]3C[C@H]3C(=O)N[C@H]3CC[C@H](C)CC3)CC2)c2cccc(C(F)(F)F)c21 [compound 833305] :: 8.06
7. C[C@H]1CC[C@H](NC(=O)[C@@H]2C[C@H]2CN2CCN(c3nn(-c4cccc(F)c4)c4ccsc34)CC2)CC1 [compound 833856] :: 8.52
8. C[C@H]1CC[C@H](NC(=O)[C@@H]2C[C@H]2CN2CCC(c3cc4ccccc4s3)CC2)CC1 (relative stereo) [compound 831148] :: 9.34
9. Cn1nc(C2CCN(C[C@@H]3C[C@H]3C(=O)NCCCn3ccnc3)CC2)c2cccc(C(F)(F)F)c21 [compound 832654] :: 8.33

This collection of values is drawn from patent EP1935887A1.
